Below are k8, rate constant for peptidase-dependent degradation of tri-ubiquitinated substrate values recorded for endogenous proteases and peptidases found in the S100 lysates.

So what k8, rate constant for peptidase-dependent degradation of tri-ubiquitinated substrate did KKYSSQTSQDSGNYSNK(FAM)KKK [IFNAR1] get with endogenous proteases and peptidases found in the S100 lysates? 0.01 (1/min)*10^3

Any idea what k8, rate constant for peptidase-dependent degradation of tri-ubiquitinated substrate came out for KAAEEEEVSLASTPTDVRDVDIK(FAM)KKK [Cyclin D1] on endogenous proteases and peptidases found in the S100 lysates? 0.01 (1/min)*10^3

----------
Tested on: HeLa S100 cytosolic lysates as the source of E1, E2, and E3 enzymes
Assay: Ubiquitin pull down assay with methylated ubiquitin, multi-monoubiquitination kinetic model
Type: biochemical
Details: ratio of fitted rate constants, >1 favours ubiquitination, <1 degradation
measurement label: k1/k5, mono-ubiquitination vs. degradation of unmodified substrate

# substance, numeric result
measured = [
    ("K-(PEG)-KEEKDINNNVKKTK(FAM)KKK [iNOS, fluorescein-tagged degron-based peptide substrate from iNOS, E3 ligase unknown]", 1.62),
    ("KKYSSQTSQDSGNYSNK(FAM)KKK [IFNAR1, fluorescein-tagged degron-based peptide substrate from IFNAR1, E3 ligase SCF^βTrCP]", 0.96),
    ("KPFLNGGPYHSREQSTDSGLGLGSYK(FAM)KKK [TAZ, fluorescein-tagged degron-based peptide substrate from TAZ, E3 ligase SCF^βTrCP]", 2.65),
]

I: KAWQQQSYLDSGIHSGATTTAPK(FAM)KKK [β-Catenin, fluorescein-tagged degron-based peptide substrate from β-Catenin, E3 ligase SCF^βTrCP]
II: KAAEEEEVSLASTPTDVRDVDIK(FAM)KKK [Cyclin D1, fluorescein-tagged degron-based peptide substrate from Cyclin D1, E3 ligase SCF^FBX4]
Hi, I'm comparing two records. Which one has the lower k1/k5, mono-ubiquitination vs. degradation of unmodified substrate, I or II ? Give the chosen item's label as your response. II

----------
// each record: one item and its k9, rate constant for peptidase-dependent degradation of tetra-ubiquitinated substrate for endogenous proteases and peptidases found in the S100 lysates

Use the examples below as a reference point.
# substance, result
records = [
    ("K-(PEG)-DVQKADVSSTGQGIDSK(FAM)KKK [SRC3]", "0.33 (1/min)*10^3"),
    ("KAAEEEEVSLASTPTDVRDVDIK(FAM)KKK [Cyclin D1]", "1.8 (1/min)*10^3"),
    ("KAWQQQSYLDSGIHSGATTTAPK(FAM)KKK [β-Catenin]", "3.0 (1/min)*10^3"),
    ("K-(PEG)-KEEKDINNNVKKTK(FAM)KKK [iNOS]", "0.3 (1/min)*10^3"),
]

Any idea what its k9, rate constant for peptidase-dependent degradation of tetra-ubiquitinated substrate is? The substance is KPFLNGGPYHSREQSTDSGLGLGSYK(FAM)KKK [TAZ] 0.1 (1/min)*10^3

Reported k9, rate constant for peptidase-dependent degradation of tetra-ubiquitinated substrate, substance KKYSSQTSQDSGNYSNK(FAM)KKK [IFNAR1] : ____ 0.1 (1/min)*10^3

----------
Recorded k8, rate constant for peptidase-dependent degradation of tri-ubiquitinated substrate values (endogenous proteases and peptidases found in the S100 lysates) are given below.

Example substances with recorded k8, rate constant for peptidase-dependent degradation of tri-ubiquitinated substrate:
# substance, result
data = [
    ("KAWQQQSYLDSGIHSGATTTAPK(FAM)KKK [β-Catenin]", "1.0 (1/min)*10^3"),
    ("K-(PEG)-DVQKADVSSTGQGIDSK(FAM)KKK [SRC3]", "0.01 (1/min)*10^3"),
    ("KPFLNGGPYHSREQSTDSGLGLGSYK(FAM)KKK [TAZ]", "0.5 (1/min)*10^3"),
]

I would be grateful if you could share the reported k8, rate constant for peptidase-dependent degradation of tri-ubiquitinated substrate for K-(PEG)-KEEKDINNNVKKTK(FAM)KKK [iNOS] . 0.01 (1/min)*10^3
